tested on: U87MG glioblastoma cells; test: Resazurin reduction cytotoxicity assay, U87MG; assay type: cell-based; details: Homo sapiens, U-87 MG; U87MG glioblastoma cells, resazurin assay, 72 h; read-out: IC50 values
experimental.readout: pIC50
Units for pIC50: none; it is -log10 of a concentration expressed in mol/L.

INSERT INTO measurements (compound, experimental_readout, test_result) VALUES
  ('COc1cccc2c1C(=O)c1c(O)c3c(c(O)c1C2=O)C[C@@](O)(C(=O)CO)C[C@@H]3O[C@H]1C[C@H](N)[C@H](O)[C@H](C)O1 [Doxorubicin, doxorubicin, reference compound]', 'pIC50', 5.97);

Recorded result, COc1c(O)ccc2c1C(O)N(C)c1c-2ccc2cc3c(cc12)OCO3 (centres unmarked) , pIC50: 4.22

====

Listed here are compounds together with their documented IC50.
test system: MDA-MB231/BCRP cells; experiment: Resazurin reduction cytotoxicity assay, MDA-MB231/BCRP; type: cell-based; conditions: MDA-MB-231/BCRP; MDA-MB231/BCRP resistant subline, resazurin assay, 72 h; read-out: IC50 values
Field format: number, assumed µM, no unit text.

INSERT INTO results (compound, assayed_target, test_result) VALUES
  ('COc1cccc2c1C(=O)c1c(O)c3c(c(O)c1C2=O)C[C@@](O)(C(=O)CO)C[C@@H]3O[C@H]1C[C@H](N)[C@H](O)[C@H](C)O1 [Doxorubicin, doxorubicin, reference compound]', 'MDA-MB231/BCRP cells', 7.83);

Consider the record given below.
Recorded result, COc1c(O)ccc2c1C(O)N(C)c1c-2ccc2cc3c(cc12)OCO3 (centres unmarked) , IC50: 65

====

Listed here are molecules together with their documented IC50.
System: HCT116 (p53-/-) colon cancer cells
Test: Resazurin reduction cytotoxicity assay, HCT116 (p53-/-)
Assay type: cell-based
Details: Homo sapiens, HCT-116, 72 h, read-out: IC50 values
Experimental: The resazurin reduction assay was performed to assess the cytotoxicity of compounds and doxorubicin as control drug towards various sensitive and drug-resistant cancer cell lines, including the CCRF-CEM and CEM/ADR5000 leukemia, MDA-MB231 breast cancer cells and its resistant subline MDA-MB231/BCRP, HCT116p53^+/+ colon cancer cells and its resistant subline HCT116p53^−/−, U87MG glioblastoma cells and its resistant subline U87MG. ΔEGFR and HepG2 hepatocarcinoma cells and normal AML12 hepatocytes. […]

Recorded result, COc1cccc2c1C(=O)c1c(O)c3c(c(O)c1C2=O)C[C@@](O)(C(=O)CO)C[C@@H]3O[C@H]1C[C@H](N)[C@H](O)[C@H](C)O1 [Doxorubicin, doxorubicin, reference compound] , IC50: 4.06 µM

Recorded result, COc1c2cc3c(cc2nc2occc12)OCO3 , IC50: > 165 µM

Recorded result, COc1cc2nc3occc3c(OC)c2cc1OC , IC50: > 154 µM

Recorded result, COc1c(O)ccc2c1c[n+](C)c1c3cc4c(cc3ccc21)OCO4 , IC50: > 120 µM

====

tested on: CCRF-CEM leukemia cells; test: Resazurin reduction cytotoxicity assay, CCRF-CEM; type: cell-based; conditions: Homo sapiens, CCRF-CEM, 72 h, read-out: IC50 values
experimental.readout: IC50 (µM)
Field format: number, assumed µM, no unit text.

// below: answered compounds
INSERT INTO measurements (input_smiles, experimental_readout, display_unit, test_result) VALUES
  ('COc1c2cc3c(cc2nc2occc12)OCO3', 'IC50', 'µM', 89.1),
  ('COc1cc2nc3occc3c(OC)c2cc1OC', 'IC50', 'µM', 49.8);

Consider the record given below.
Recorded result, COc1c(O)ccc2c1c[n+](C)c1c3cc4c(cc3ccc21)OCO4 , IC50: 0.3

====

test system: CEM/ADR5000 leukemia cells; experiment: Resazurin reduction cytotoxicity assay, CEM/ADR5000; assay type: cell-based; details: Homo sapiens, ADR5000, 72 h, read-out: IC50 values
experimental.readout: IC50 (µM)
Field format: number, assumed µM, no unit text.

// below: answered molecules
INSERT INTO results (molecule, experimental_readout, display_unit, test_result) VALUES
  ('COc1c(O)ccc2c1c[n+](C)c1c3cc4c(cc3ccc21)OCO4 [Compound 2, isofagaridine]', 'IC50', 'µM', 20.4),
  ('COc1c2cc3c(cc2nc2occc12)OCO3 [Compound 3, maculine]', 'IC50', 'µM', 63.1);

Consider the record given below.
Considering COc1cc2nc3occc3c(OC)c2cc1OC [Compound 4, kokusaginine] , its IC50 with CEM/ADR5000 leukemia cells was recorded as 44.6
